Provenance of the data: patent US12522590B2

- test.summary: Solubility test (shake 37° C., 24 h, HPLC)
- Format: physicochemical
- setup.conditions: organic solvent or mixture, thermodynamic from solid, methanol, x ± s, n = 3, read-out: Solubility, Methanol
Each record here notes measured solubility at 24 h.
recorded.endpoint: solubility at 24 h (mg/mL)

INSERT INTO assay_data (molecule, recorded_endpoint, unit_of_measure, experimental_result) VALUES
  ('COc1ccc(COC(=O)O[C@@H]2C[C@H]3[C@H](O)/C=C/C(=O)O[C@@H](C)CCC/C=C/[C@@H]3C2)cn1 [Compound 6]', 'solubility at 24 h', 'mg/mL', 70.4),
  ('C[C@H]1CCC/C=C/[C@@H]2C[C@H](OC(=O)OCc3cccnc3)C[C@H]2[C@H](OC(=O)OCc2cccnc2)/C=C/C(=O)O1 [Compound D, reference compound]', 'solubility at 24 h', 'mg/mL', 20.4),
  ('C[C@H]1CCC/C=C/[C@@H]2C[C@H](OC(=O)OCc3cnc4ccccc4c3)C[C@H]2[C@H](O)/C=C/C(=O)O1 [Compound 11, BFA-7-(quinoline-3-ylmethyl)carbonate]', 'solubility at 24 h', 'mg/mL', 69.3);

* * *

- test.summary: Solubility test (shake 37° C., 24 h, HPLC)
- Type: physicochemical
- setup.conditions: organic solvent or mixture, thermodynamic from solid, acetone, x ± s, n = 3, read-out: Solubility, Acetone
- Procedure: The term “solubility” refers to the mass of solute dissolved when a solid substance reaches saturation state in 100 g solvent at a certain temperature. […] Methods: Excess BFA and the compounds disclosed herein were added to 10 mL of three solvents, methanol, acetone and 5% DMSO+95% H2O, respectively, and shaken on a shaker at 37° C. at 100 r/min for 24 h. […] The supernatant was appropriately diluted with methanol and contents of the compounds were determined by HPLC method to calculate the solubility.
Each record here notes measured solubility at 24 h.
recorded.endpoint: solubility at 24 h (mg/mL)

INSERT INTO assay_data (compound, recorded_endpoint, experimental_result) VALUES
  ('C[C@H]1CCC/C=C/[C@@H]2C[C@H](OC(=O)OCc3cnc4ccccc4c3)C[C@H]2[C@H](O)/C=C/C(=O)O1 [Compound 11, BFA-7-(quinoline-3-ylmethyl)carbonate]', 'solubility at 24 h', 67.6),
  ('C[C@H]1CCC/C=C/[C@@H]2C[C@H](OC(=O)OCCc3ccccc3)C[C@H]2[C@H](O)/C=C/C(=O)O1 [Compound A, reference compound]', 'solubility at 24 h', 9.36),
  ('C[C@H]1CCC/C=C/[C@@H]2C[C@H](OC(=O)OCc3ccncc3)C[C@H]2[C@H](O)/C=C/C(=O)O1 [Compound 3, BFA-7-(pyridine-4-ylmethyl)carbonate]', 'solubility at 24 h', 69.6),
  ('C[C@H]1CCC/C=C/[C@@H]2C[C@H](OC(=O)OCc3cccnc3)C[C@H]2[C@H](OC(=O)OCc2cccnc2)/C=C/C(=O)O1 [Compound D, reference compound]', 'solubility at 24 h', 21.2),
  ('COC(=O)O[C@@H]1C[C@H]2[C@H](O)/C=C/C(=O)O[C@@H](C)CCC/C=C/[C@@H]2C1 [Compound C, reference compound]', 'solubility at 24 h', 9.26),
  ('C[C@H]1CCC/C=C/[C@@H]2C[C@H](OC(=O)OCCc3cccnc3)C[C@H]2[C@H](O)/C=C/C(=O)O1 [Compound 9, BFA-7-(pyridine-3-ylethyl)carbonate]', 'solubility at 24 h', 68.8);

* * *

- test.summary: Solubility test (shake 37° C., 24 h, HPLC)
- Assay type: physicochemical
- setup.conditions: organic solvent or mixture, thermodynamic from solid, methanol, x ± s, n = 3, read-out: Solubility, Methanol
Each record here notes measured solubility at 24 h.
recorded.endpoint: solubility at 24 h

INSERT INTO results (compound, experimental_result) VALUES
  ('COC(=O)O[C@@H]1C[C@H]2[C@H](O)/C=C/C(=O)O[C@@H](C)CCC/C=C/[C@@H]2C1 [Compound C, reference compound]', '9440 µg/mL'),
  ('C[C@H]1CCC/C=C/[C@@H]2C[C@H](OC(=O)OCc3cccnc3)C[C@H]2[C@H](O)/C=C/C(=O)O1 [Compound 1, BFA-7-(pyridine-3-ylmethyl)carbonate]', '74300 µg/mL'),
  ('C[C@H]1CCC/C=C/[C@@H]2C[C@H](OC(=O)OCCc3ccccc3)C[C@H]2[C@H](O)/C=C/C(=O)O1 [Compound A, reference compound]', '9930 µg/mL');

* * *

- test.summary: Solubility test (shake 37° C., 24 h, HPLC)
- Type: physicochemical
- setup.conditions: aqueous with cosolvent or surfactant or cyclodextrin, thermodynamic from solid, 5% DMSO + 95% H2O, x ± s, n = 3, read-out: Solubility, 5% DMSO + 95% H2O
recorded.endpoint: solubility at 24 h

INSERT INTO assay_data (compound, experimental_result) VALUES
  ('C[C@H]1CCC/C=C/[C@@H]2C[C@H](OC(=O)OCc3cccc(F)c3)C[C@H]2[C@H](O)/C=C/C(=O)O1 [Compound B, reference compound]', '260 µg/mL'),
  ('C[C@H]1CCC/C=C/[C@@H]2C[C@H](OC(=O)OCc3ccncc3)C[C@H]2[C@H](O)/C=C/C(=O)O1 [Compound 3, BFA-7-(pyridine-4-ylmethyl)carbonate]', '2650 µg/mL'),
  ('C[C@H]1CCC/C=C/[C@@H]2C[C@H](OC(=O)OCCc3ccccc3)C[C@H]2[C@H](O)/C=C/C(=O)O1 [Compound A, reference compound]', '250 µg/mL'),
  ('C[C@H]1CCC/C=C/[C@@H]2C[C@H](OC(=O)OCc3cncc(F)c3)C[C@H]2[C@H](O)/C=C/C(=O)O1 [Compound 4]', '2720 µg/mL'),
  ('C[C@H]1CCC/C=C/[C@@H]2C[C@H](OC(=O)OCc3cnc4ccccc4c3)C[C@H]2[C@H](O)/C=C/C(=O)O1 [Compound 11, BFA-7-(quinoline-3-ylmethyl)carbonate]', '2650 µg/mL'),
  ('C[C@H]1CCC/C=C/[C@@H]2C[C@H](OC(=O)OCc3ccccn3)C[C@H]2[C@H](O)/C=C/C(=O)O1 [Compound 2, BFA-7-(pyridine-2-ylmethyl)carbonate]', '2480 µg/mL'),
  ('C[C@H]1CCC/C=C/[C@@H]2C[C@H](OC(=O)OCc3cccnc3)C[C@H]2[C@H](O)/C=C/C(=O)O1 [Compound 1, BFA-7-(pyridine-3-ylmethyl)carbonate]', '2730 µg/mL'),
  ('COc1ccc(COC(=O)O[C@@H]2C[C@H]3[C@H](O)/C=C/C(=O)O[C@@H](C)CCC/C=C/[C@@H]3C2)cn1 [Compound 6]', '2950 µg/mL'),
  ('COC(=O)O[C@@H]1C[C@H]2[C@H](O)/C=C/C(=O)O[C@@H](C)CCC/C=C/[C@@H]2C1 [Compound C, reference compound]', '250 µg/mL'),
  ('C[C@H]1CCC/C=C/[C@@H]2C[C@H](OC(=O)OCc3cccnc3)C[C@H]2[C@H](OC(=O)OCc2cccnc2)/C=C/C(=O)O1 [Compound D, reference compound]', '510 µg/mL'),
  ('C[C@H]1CCC/C=C/[C@@H]2C[C@H](OC(=O)OCCc3cccnc3)C[C@H]2[C@H](O)/C=C/C(=O)O1 [Compound 9, BFA-7-(pyridine-3-ylethyl)carbonate]', '2700 µg/mL');

* * *

- System: human breast cancer cells MCF7
- test.summary: Cell proliferation assay (CCK-8)
- Assay type: cell-based
- setup.conditions: Homo sapiens, MCF7, 72 h
pIC50: −log10 of the molar value.
recorded.endpoint: pIC50

INSERT INTO measurements (compound, experimental_result) VALUES
  ('COc1ccc(COC(=O)O[C@@H]2C[C@H]3[C@H](O)/C=C/C(=O)O[C@@H](C)CCC/C=C/[C@@H]3C2)cn1 [Compound 6]', '6.00 to 7.00'),
  ('C[C@H]1CCC/C=C/[C@@H]2C[C@H](OC(=O)OCCCc3cccnc3)C[C@H]2[C@H](O)/C=C/C(=O)O1 [Compound 10]', '6.00 to 7.00'),
  ('C[C@H]1CCC/C=C/[C@@H]2C[C@H](OC(=O)OCc3cncc4ccccc34)C[C@H]2[C@H](O)/C=C/C(=O)O1 [Compound 12]', '6.00 to 7.00'),
  ('COC(=O)O[C@@H]1C[C@H]2[C@H](O)/C=C/C(=O)O[C@@H](C)CCC/C=C/[C@@H]2C1 [Compound C, reference compound]', '6.00 to 7.00'),
  ('C[C@H]1CCC/C=C/[C@@H]2C[C@H](OC(=O)OCCc3ccccc3)C[C@H]2[C@H](O)/C=C/C(=O)O1 [Compound A, reference compound]', '5.00 to 6.00'),
  ('C[C@H]1CCC/C=C/[C@@H]2C[C@H](OC(=O)OCc3cnc4ccccc4c3)C[C@H]2[C@H](O)/C=C/C(=O)O1 [Compound 11, BFA-7-(quinoline-3-ylmethyl)carbonate]', '6.00 to 7.00');
